Sourced from PubChem BioAssay (NCI)

tested on: IGROV1 ovarian; experiment: NCI-60 one-dose screen, 48 h (100 = growth as untreated, 0 = no growth, -100 = all killed); conditions: 10 µM unless noted
The panel holds about 83,000 compounds, 20% with a hit somewhere; the sample as a whole holds those more often.
growth class ranges: lowest = under 50%, middle = from 50% up to 90%, highest = 90% and over

Could you place COc1cccc(-c2nn(-c3ccccc3)cc2-c2ccnc(NCCCNC(=O)Nc3ccc(Cl)c(Cl)c3)c2)c1 in its proper category? Many thanks.
lowest

Bin? NC(=N\N=C/c1cccc([N+](=O)[O-])c1)/C(N)=N\N=C/c1cccc([N+](=O)[O-])c1
highest

State the class of the compound shown: Nc1n[nH]c2cc(F)c([C@@H]3Nc4c(F)cc5[nH]ncc5c4[C@H]4C5CCC(C5)[C@@H]34)cc12 (some centres undefined)
lowest

Tag the class for O=C1/C(=C\c2cccnc2)SC(=S)N1CCc1ccc(O)cc1
middle

Tag the class for COc1cccc(C(=O)NCCNc2cc(-c3cn(-c4ccccc4)nc3-c3cccc(OC)c3)ccn2)c1
middle

In plain terms, what class is COc1cc(C(=O)/C=C/c2c(C(F)(F)F)nc3sccn23)cc(OC)c1OC ?
lowest

Consider COc1cccc(-c2nn(-c3ccccc3)cc2-c2ccnc(NCCCNC(=O)c3ccc(F)cc3)c2)c1 . To which growth class does it belong?
lowest

The entry to classify is NC[C@H](O)c1ccc(O)c(O)c1 ; which class holds it?
highest

Please indicate the class for N#Cc1c(-c2ccccn2)[nH]c(=S)[nH]c1=O based on its growth.
highest

# bin lookup: classify CC1=C([Se]CC(OC(=O)[C@@H](CO)NC(=O)OC(C)(C)C)C(=O)NC(C)(C)C)C(=O)c2ccccc2C1=O (some centres undefined) by its growth
lowest

Which category fits this record: CC(=O)OC[C@H]1OC(Sc2sc(C(=O)c3ccc(Br)cc3)c(N)c2-c2nc3ccccc3s2)[C@H](OC(C)=O)[C@@H](OC(C)=O)[C@@H]1OC(C)=O (some centres undefined)
lowest

For the record COc1ccc(/C=N/C2=C(C#N)C(c3ccc(OC)cc3)c3ccc4ccccc4c3O2)cc1 (centres undefined) , report the class its growth corresponds to.
middle

Which growth category applies to CC(=O)c1nc(Nc2ccc(C)cc2)sc1C here?
middle

Category lookup for the compound CCc1ccccc1NC(=O)/C(C#N)=C/c1ccc(OC)cc1
highest

Which class does CN(C)CCNc1nc2ccccc2c2c1c1c(n2Cc2ccccc2)-c2ccccc2C1=O fall in?
lowest

Place this compound in its band: Cc1ccc(Nc2nc(N)nc(CSCC(=O)NN)n2)cc1
highest
